- System: Syrian hamsters
- ASSAY_DETAILS: Test Example 3: olive oil-loading test (inhibition of fat absorption, plasma TG)
- Type: in vivo
- STUDY_CONDITIONS: Mesocricetus auratus, po; 100 mg/kg p.o.; plasma TG 4 hours after olive oil; read-out: Test Example 3 Inhibition of fat absorption after olive oil-loading in Hamster Inhibition rate (%)
Answer not satisfied if inhibition in vivo at 100 mg/kg is under 70%, and satisfied if it is 70% or more.

Look over these answered cases.
CCNC(=O)C(CCOC(=O)Cc1cccc(NC(=O)c2ccccc2-c2ccc(C(F)(F)F)cc2)c1C)(C(=O)NCC)c1ccccc1 | satisfied
CC(C)CNC(=O)C(COC(=O)Cc1ccc(NC(=O)c2ccccc2-c2ccc(C(F)(F)F)cc2)cc1)(C(=O)NCC(C)C)c1ccccc1 | not satisfied
CCCNC(=O)C(COC(=O)Cc1ccc(NC(=O)c2ccccc2-c2ccc(C(F)(F)F)cc2)cc1)(C(=O)NCCC)c1ccccc1 | not satisfied

Textbook exercise: given the entry CCNC(=O)C(COC(=O)Cc1ccc(NC(=O)c2ccccc2-c2ccc(C(F)(F)F)cc2)cc1)(C(=O)NCC)c1ccccc1 , state whether its inhibition in vivo at 100 mg/kg is greater than or equal to 70%.
not satisfied
